Target: human EGFR (native sequence) (Homo sapiens)
Sequence (P00533 25-1210): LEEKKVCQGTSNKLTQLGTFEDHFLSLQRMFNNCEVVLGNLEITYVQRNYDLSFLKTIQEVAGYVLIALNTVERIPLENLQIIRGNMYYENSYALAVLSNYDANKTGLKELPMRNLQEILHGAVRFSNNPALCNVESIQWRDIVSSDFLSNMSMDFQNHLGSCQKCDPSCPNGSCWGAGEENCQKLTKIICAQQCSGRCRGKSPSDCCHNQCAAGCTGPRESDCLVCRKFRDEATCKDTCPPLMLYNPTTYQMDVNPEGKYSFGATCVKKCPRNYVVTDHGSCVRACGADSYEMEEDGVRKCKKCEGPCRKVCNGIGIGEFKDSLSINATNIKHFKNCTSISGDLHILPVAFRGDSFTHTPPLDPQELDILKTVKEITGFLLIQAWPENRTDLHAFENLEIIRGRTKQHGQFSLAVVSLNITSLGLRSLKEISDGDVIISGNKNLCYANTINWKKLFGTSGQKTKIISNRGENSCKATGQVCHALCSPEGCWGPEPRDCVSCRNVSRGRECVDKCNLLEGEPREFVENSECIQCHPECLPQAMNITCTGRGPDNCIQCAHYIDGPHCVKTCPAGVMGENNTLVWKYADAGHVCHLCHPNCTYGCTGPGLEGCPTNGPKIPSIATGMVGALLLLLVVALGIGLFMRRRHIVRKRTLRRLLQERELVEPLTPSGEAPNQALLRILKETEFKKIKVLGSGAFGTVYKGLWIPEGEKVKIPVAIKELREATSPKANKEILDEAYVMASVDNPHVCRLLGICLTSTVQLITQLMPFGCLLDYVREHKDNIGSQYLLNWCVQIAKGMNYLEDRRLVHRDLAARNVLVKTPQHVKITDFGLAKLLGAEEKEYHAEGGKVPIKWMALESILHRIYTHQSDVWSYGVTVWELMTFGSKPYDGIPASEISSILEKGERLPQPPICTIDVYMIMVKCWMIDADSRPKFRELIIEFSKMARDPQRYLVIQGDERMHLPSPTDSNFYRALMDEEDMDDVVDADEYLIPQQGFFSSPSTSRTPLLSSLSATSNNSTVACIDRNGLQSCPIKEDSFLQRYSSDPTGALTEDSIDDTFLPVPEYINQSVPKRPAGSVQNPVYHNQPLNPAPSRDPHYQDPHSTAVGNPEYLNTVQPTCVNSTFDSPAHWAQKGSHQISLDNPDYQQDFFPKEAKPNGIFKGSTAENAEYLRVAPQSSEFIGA
Experiment: Kinase inhibitory activity against human EGFR (native sequence)
Format: biochemical
Conditions: 10 pt curves, 3 μM top concentration, 10 μM ATP; read-out: IC50 for kinase inhibition, EGFR
Below, each of the compounds is paired with its reported IC50 value.

Compound	Value
C=CC(=O)Nc1ccc(CC)c(Nc2ncc(Cl)c(Nc3ccccc3P(C)(C)=O)n2)c1	< 50 nM

Input line: Quote IC50 with test system human EGFR (native sequence) (Homo sapiens) for COCC1CCCN1CCC#CC(=O)Nc1cc(Nc2ncc(Cl)c(Nc3ccccc3P(C)(C)=O)n2)c(OC)cc1N1CCOCC1 (stereo not shown)
Output line: < 50 nM

Input line: Quote IC50 with test system human EGFR (native sequence) (Homo sapiens) for C=CC(=O)Nc1cc(Cc2ncc(Cl)c(Nc3ccccc3P(C)(C)=O)n2)c(OC)cc1C#CCN(C)C(C)(C)C
Output line: < 50 nM
